All values here come from patent US8828992B2.

Target: Monoamineoxidase B type human-derived enzyme (Homo sapiens)
Sequence (P27338 1-520): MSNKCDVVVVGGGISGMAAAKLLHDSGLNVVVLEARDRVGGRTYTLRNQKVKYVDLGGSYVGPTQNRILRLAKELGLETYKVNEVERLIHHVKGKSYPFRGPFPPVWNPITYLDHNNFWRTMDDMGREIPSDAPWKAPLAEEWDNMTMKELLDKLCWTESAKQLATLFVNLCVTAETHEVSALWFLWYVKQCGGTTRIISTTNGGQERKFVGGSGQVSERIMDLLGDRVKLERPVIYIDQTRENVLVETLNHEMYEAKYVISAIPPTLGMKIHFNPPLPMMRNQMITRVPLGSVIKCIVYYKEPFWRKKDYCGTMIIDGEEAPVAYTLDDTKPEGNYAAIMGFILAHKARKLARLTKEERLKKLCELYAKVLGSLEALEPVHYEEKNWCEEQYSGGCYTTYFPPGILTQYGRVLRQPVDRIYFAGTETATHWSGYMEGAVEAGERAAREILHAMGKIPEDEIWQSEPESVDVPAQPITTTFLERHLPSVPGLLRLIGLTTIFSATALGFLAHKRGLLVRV
Assay: Inhibitory effects on the activity of MAO-B (Amplex Red fluorescence, benzylamine substrate)
Type: biochemical
Conditions: treatment concentration 10 nM; read-out: Inhibitory effects (%) on the activity of MAO-B
PARAMETER MEASURED: inhibition at 0.01 µM (%)

[[record]]
molecule = "NC(=O)OCc1cc(-c2ccc(OCc3ccccc3C(F)(F)F)cc2)no1 [Example 201]"
measured_value = 72.4

[[record]]
molecule = "NC(=O)OCc1cc(-c2ccc(OCc3ccc(F)cc3)cc2)no1 [Example 13]"
measured_value = 102

[[record]]
molecule = "NC(=O)OCc1cc(-c2ccc(NCc3cccc(F)c3)cc2)no1 [Example 77]"
measured_value = 77.1

[[record]]
molecule = "NC(=O)OCc1cc(-c2ccc(NCc3c(Cl)cccc3Cl)cc2)no1 [Example 91]"
measured_value = 73.1


1. NC(=O)OCc1cc(-c2ccc(OCc3c(F)cccc3Cl)cc2)no1 [Example 199]
2. Cc1noc(C)c1CNc1ccc(-c2cc(COC(N)=O)on2)cc1 [Example 112]
I'm curious, which of these has a smaller inhibition at 0.01 µM number: 1 or 2 ? Please indicate the selected item by its label. 2
(2: 26%, 1: 83.2%)

###

Biological target: Monoamineoxidase B type human-derived enzyme (Homo sapiens)
Sequence (P27338 1-520): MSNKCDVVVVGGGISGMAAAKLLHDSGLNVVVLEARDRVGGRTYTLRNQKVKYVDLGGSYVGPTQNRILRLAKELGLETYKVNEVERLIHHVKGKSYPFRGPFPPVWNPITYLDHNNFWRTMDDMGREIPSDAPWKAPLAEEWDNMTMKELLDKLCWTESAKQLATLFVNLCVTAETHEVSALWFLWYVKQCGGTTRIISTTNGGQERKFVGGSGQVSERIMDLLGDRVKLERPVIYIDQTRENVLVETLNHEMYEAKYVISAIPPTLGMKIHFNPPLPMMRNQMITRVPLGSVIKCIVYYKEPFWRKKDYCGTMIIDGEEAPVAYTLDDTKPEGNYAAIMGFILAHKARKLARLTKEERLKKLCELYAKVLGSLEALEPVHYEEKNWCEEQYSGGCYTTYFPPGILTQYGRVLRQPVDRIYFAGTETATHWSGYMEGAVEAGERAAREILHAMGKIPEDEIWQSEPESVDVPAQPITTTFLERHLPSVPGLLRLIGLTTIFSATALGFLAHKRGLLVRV
Experiment: Inhibitory effects on the activity of MAO-B (Amplex Red fluorescence, benzylamine substrate)
Assay type: biochemical
Details: treatment concentration 10 nM; read-out: Inhibitory effects (%) on the activity of MAO-B
PARAMETER MEASURED: inhibition at 0.01 µM (%)

Some solved entries appear below for comparison.
[[record]]
mol_smiles = "NC(=O)OCc1cc(-c2ccc(OCc3c(Cl)cncc3Cl)cc2)no1"
measured_value = 83.6

[[record]]
mol_smiles = "OC1CCN(Cc2cc(-c3ccc(OCc4ccccc4)cc3)no2)CC1"
measured_value = 43.5

[[record]]
mol_smiles = "O=C(OCc1cc(-c2ccc(OCc3ccccc3)cc2)no1)n1ccnc1"
measured_value = 87.8


P. NC(=O)OCc1cc(-c2ccc(OCc3cc(Cl)ccc3Cl)cc2)no1
Q. CCc1nc(C)cn1Cc1cc(-c2ccc(OCc3ccccc3)cc2)no1
Pick one: P or Q . Which has the bigger inhibition at 0.01 µM number? Please indicate the selected item by its label. P
(P: 83.3%, Q: 51.2%)

P. COc1cccc(CNc2ccc(-c3cc(COC(N)=O)on3)cc2)c1
Q. NC(=O)OCc1cc(-c2ccc(OCc3c(F)cc(F)cc3F)cc2)no1
I'm curious, which of these has a smaller inhibition at 0.01 µM number: P or Q ? Please indicate the selected item by its label. P

###

Molecular target: Monoamineoxidase B type human-derived enzyme (Homo sapiens)
Experiment: Inhibitory effects on the activity of MAO-B (Amplex Red fluorescence, benzylamine substrate)
Assay type: biochemical
Settings: treatment concentration 10 nM; read-out: Inhibitory effects (%) on the activity of MAO-B
Method: Monoamineoxidase A or B type human-derived enzyme (5 mg/ml) was each diluted with 0.05 M sodium phosphate buffer (pH 7.4) to yield a dilution of 1:200, and then 100 μl of an enzyme buffer containing 2 μl of a compound 1 solution at the corresponding concentration was placed in a test plate (flat-bottom) and incubated for 30 minutes. […]
PARAMETER MEASURED: inhibition at 0.01 µM (%)

Some solved entries appear below for comparison.
[[record]]
molecule = "CN(C)NC(=O)OCc1cc(-c2ccc(OCc3ccccc3)cc2)no1"
measured_value = 22

[[record]]
molecule = "Fc1cc(F)c(COc2ccc(-c3cc(Cn4ccnc4)on3)cc2)c(F)c1"
measured_value = 70.7

[[record]]
molecule = "OCCNCc1cc(-c2ccc(OCc3ccccc3)cc2)no1"
measured_value = 44.7


1. CC(Oc1ccc(-c2cc(COC(N)=O)on2)cc1)c1ccccc1 (stereo not drawn)
2. NC(=O)OCc1cc(-c2ccc(NCc3ccc(Cl)cc3)cc2)no1
3. NC(=O)OCc1cc(-c2ccc(NCc3c(Cl)ccc(Cl)c3Cl)cc2)no1
Please order the records by their reported inhibition at 0.01 µM, lowest number first. Reply with the item labels sorted in the order that was asked for. 3, 2, 1

P. NC(=O)OCc1cc(-c2ccc(NCc3cc(Cl)ccc3Cl)cc2)no1
Q. NC(=O)OCc1cc(-c2ccc(OCc3cccc([N+](=O)[O-])c3)cc2)no1
I'm curious, which of these has a smaller inhibition at 0.01 µM number: P or Q ? Please indicate the selected item by its label. P

###

Molecular target: Monoamineoxidase B type human-derived enzyme (Homo sapiens, UniProt P27338)
Sequence (P27338 1-520): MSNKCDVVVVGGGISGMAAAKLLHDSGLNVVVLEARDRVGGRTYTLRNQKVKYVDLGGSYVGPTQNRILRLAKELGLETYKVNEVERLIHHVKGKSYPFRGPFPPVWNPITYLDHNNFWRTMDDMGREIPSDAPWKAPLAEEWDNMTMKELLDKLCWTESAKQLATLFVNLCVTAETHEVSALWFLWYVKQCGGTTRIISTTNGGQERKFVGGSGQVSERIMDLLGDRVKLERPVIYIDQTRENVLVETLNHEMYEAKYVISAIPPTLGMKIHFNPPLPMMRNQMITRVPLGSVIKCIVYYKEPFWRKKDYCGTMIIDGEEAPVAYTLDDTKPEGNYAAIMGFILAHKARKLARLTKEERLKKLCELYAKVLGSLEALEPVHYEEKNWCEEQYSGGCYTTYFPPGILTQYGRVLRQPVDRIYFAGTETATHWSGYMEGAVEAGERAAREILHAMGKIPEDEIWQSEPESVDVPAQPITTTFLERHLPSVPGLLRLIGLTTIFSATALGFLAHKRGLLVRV
Assay: Inhibitory effects on the activity of MAO-B (Amplex Red fluorescence, benzylamine substrate)
Assay type: biochemical
Conditions: treatment concentration 10 nM; read-out: Inhibitory effects (%) on the activity of MAO-B
Protocol: Monoamineoxidase A or B type human-derived enzyme (5 mg/ml) was each diluted with 0.05 M sodium phosphate buffer (pH 7.4) to yield a dilution of 1:200, and then 100 μl of an enzyme buffer containing 2 μl of a compound 1 solution at the corresponding concentration was placed in a test plate (flat-bottom) and incubated for 30 minutes. […]
PARAMETER MEASURED: inhibition at 0.01 µM (%)

Some solved entries appear below for comparison.
[[record]]
compound = "NC(=O)OC1CCN(Cc2cc(-c3ccc(OCc4ccccc4)cc3)no2)CC1 [Example 138]"
parameter_measured = "inhibition at 0.01 µM"
measured_value = 39.1

[[record]]
compound = "NC(=O)OCc1cc(-c2ccc(OCc3cccc(C=O)c3)cc2)no1 [Example 35]"
parameter_measured = "inhibition at 0.01 µM"
measured_value = 90.4


1. NC(=O)OCc1cc(-c2ccc(NCc3cc(Cl)cc(Cl)c3)cc2)no1 [Example 93]
2. CCN(CC)Cc1cc(-c2ccc(OCc3ccccc3)cc2)no1 [Example 151]
Pick one: 1 or 2 . Which has the bigger inhibition at 0.01 µM number? Please indicate the selected item by its label. 2

1. NC(=O)OCCc1cc(-c2ccc(OCc3ccccc3)cc2)no1 [Example 118]
2. NC(=O)OCc1cc(-c2ccc(OCc3ccc(C=O)cc3)cc2)no1 [Example 36]
I'm curious, which of these has a smaller inhibition at 0.01 µM number: 1 or 2 ? Please indicate the selected item by its label. 1
